Sourced from ChEMBL document CHEMBL3243976

- Tested on: Rattus norvegicus
- Assay: Antimineralocorticoid activity in adrenalectomized rat assessed as urinary log (Na X 10)/K at 2.4 mg, sc administered post deoxycorticosterone acetate treatment relative to control
- Format: functional, Urine
Provide the recorded T/C for the entries that follow.
One number for each entry.

Structure smiles string: C[C@]12CCC(=O)C=C1C=C[C@H]1[C@@H]3[C@@H](O)C[C@@]4(CCC(=O)O4)[C@@]3(C)CC[C@@H]12
T/C: 0.62
//
Structure smiles string: C[C@]12CCC(=O)C=C1C=CC1=C3CC[C@@]4(CCC(=O)O4)[C@@]3(C)CC[C@@H]12
T/C: 0.82
//
Structure smiles string: C[C@]12CCC(=O)C=C1C=C[C@H]1C3=CC[C@@]4(CCC(=O)O4)[C@@]3(C)CC[C@@H]12
T/C: 0.67
//
Structure smiles string: C[C@]12CCC(=O)C=C1C=C[C@@H]1[C@@H]2CC[C@@]2(C)[C@H]1C[C@H](O)[C@@]21CCC(=O)O1
T/C: 0.84
//
Structure smiles string: CC(=O)O[C@H]1C[C@@]2(CCC(=O)O2)[C@@]2(C)CC[C@H]3[C@@H](C=CC4=CC(=O)CC[C@@]43C)[C@H]12
T/C: 0.77

Could you now consider this next molecule?
T/C recorded for this molecule, `C[C@]12CCC(=O)C=C1C=C[C@@H]1[C@@H]2CC[C@@]2(C)[C@H]1C(=O)C[C@@]21CCC(=O)O1` , is 1.01
